- system name: CtNDT (2′-deoxyribonucleoside/ribonucleoside transferase, dNDT) (Chroococcidiopsis thermalis)
- Construct: gene Chro_1188
- test: ITC; co-crystal structure
- Assay type: binding
readout label: Kd
Note: state the figure and append the unit.

May I ask what Kd has been recorded for O=c1[nH]cnc2c(CN3C[C@H](CO)[C@@H](O)C3)c[nH]c12 ?
9 nM

---

- system name: CtNDT (2′-deoxyribonucleoside/ribonucleoside transferase, dNDT) (Chroococcidiopsis thermalis, UniProt K9TVX3)
- Construct: gene Chro_1188
- Sequence (K9TVX3 1-155): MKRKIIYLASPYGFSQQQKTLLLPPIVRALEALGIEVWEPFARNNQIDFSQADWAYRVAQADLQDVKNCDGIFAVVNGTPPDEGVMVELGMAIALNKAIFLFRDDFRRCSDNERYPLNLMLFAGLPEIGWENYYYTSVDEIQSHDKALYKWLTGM
- test: ITC; stopped-flow fluorescence
- Type: binding
readout label: Kd (µM)
Response body: numeric value in µM, unit text excluded.

Which measured Kd value corresponds to O=c1[nH]cnc2c([C@@H]3N[C@H](CO)[C@@H](O)[C@H]3O)c[nH]c12 [immucillin-H] ?
78.2
